Biological target: UniProt:Q05769
Sequence (Q05769 18-604): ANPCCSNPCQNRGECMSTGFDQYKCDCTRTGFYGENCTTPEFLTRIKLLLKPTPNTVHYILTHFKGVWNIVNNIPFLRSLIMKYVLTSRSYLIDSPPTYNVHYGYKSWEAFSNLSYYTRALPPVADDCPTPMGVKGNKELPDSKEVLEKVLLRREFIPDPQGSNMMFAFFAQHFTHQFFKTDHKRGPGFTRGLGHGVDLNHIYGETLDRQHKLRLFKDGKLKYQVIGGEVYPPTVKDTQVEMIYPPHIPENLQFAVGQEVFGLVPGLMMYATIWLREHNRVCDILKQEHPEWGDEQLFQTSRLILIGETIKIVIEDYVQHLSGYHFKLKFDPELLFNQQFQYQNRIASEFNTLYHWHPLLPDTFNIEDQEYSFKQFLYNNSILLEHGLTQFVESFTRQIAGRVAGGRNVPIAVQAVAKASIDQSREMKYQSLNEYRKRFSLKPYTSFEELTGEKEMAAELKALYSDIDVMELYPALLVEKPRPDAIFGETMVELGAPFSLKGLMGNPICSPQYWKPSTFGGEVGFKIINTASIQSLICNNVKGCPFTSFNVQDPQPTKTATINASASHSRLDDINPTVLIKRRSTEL
Assay: In vitro purified COX-2 inhibition assay (TLC, 14C-arachidonic acid)
Type: biochemical
Conditions: mCOX-2 IC50, purified murine COX-2 (63 nM), inhibitor 20 min, then 1-14C-AA (50 μM) 37° C. 30 s, duplicates
Recorded IC50 by entry
The answer should read as a number with its unit following.

{"columns": ["Compound", "Readout value"],
 "data": [
  ["COc1ccc2c(c1)c(CC(=O)NCCCCNC(=O)c1ccc(C3=c4cc5c6c(c4Oc4c3cc3c7c4CCCN7CCC3)CCC[N+]=6CCC5)c(C(=O)NCC3CC(C)(C)N([O])C3(C)C)c1)c(C)n2C(=O)c1ccc(Cl)cc1 (stereo not shown) [Compound 5]", "1800 nM"],
  ["COc1ccc2c(c1)c(CC(=O)NCCCCNC(=O)c1ccc(C3=c4cc5c6c(c4Oc4c3cc3c7c4CCCN7CCC3)CCC[N+]=6CCC5)c(C(=O)NC3CC(C)(C)N([O])C(C)(C)C3)c1)c(C)n2C(=O)c1ccc(Cl)cc1 [Compound 1]", "300 nM"],
  ["COc1ccc2c(c1)c(CC(=O)NCCCCNC(=O)c1ccc(C3=c4cc5c6c(c4Oc4c3cc3c7c4CCCN7CCC3)CCC[N+]=6CCC5)c(C(=O)OC3CC(C)(C)N([O])C(C)(C)C3)c1)c(C)n2C(=O)c1ccc(Cl)cc1 [Compound 4]", "1240 nM"]
]}

GET /values?readout=IC50&item= COc1ccc2c(c1)c(CC(=O)NCCCCNC(=O)c1ccc(C(=O)NC3CC(C)(C)N([O])C(C)(C)C3)c(C3=c4cc5c6c(c4Oc4c3cc3c7c4CCCN7CCC3)CCC[N+]=6CCC5)c1)c(C)n2C(=O)c1ccc(Cl)cc1 [Compound 2] 330 nM

Values were extracted from patent US10792377B2.
